Molecular target: δ opioid receptor (UniProt P41143)
Starred links: 1 amine or outer side, 2 acyl side, 3 side chain; linkers in the order of their positions; H or OH if unused. Non-standard residues stand in square brackets, D forms with d. No end group written: not given here. Phe(2-(4-CF3-phenyl)) = O=C([C@H](Cc1ccccc1-c1ccc(C(F)(F)F)cc1)N[*:1])[*:2]; Phe(2-(3-thienyl)) = O=C([C@H](Cc1ccccc1-c1ccsc1)N[*:1])[*:2]; Phe(4-vinyl) = C=Cc1ccc(C[C@H](N[*:1])C(=O)[*:2])cc1; Phe(2-Ph) = N[C@@H](Cc1ccccc1-c1ccccc1)C(=O)O; Dmt = Cc1cc(O)cc(C)c1C[C@H](N)C(=O)O
Simple rule here: IC50 in the mouse vas deferens (MVD) assay less than 3 nM is met, otherwise not met.

As a guide, the following entries are already answered.
# binder, class-assignment
measured = [
    ("[Dmt][dR][Phe(2-(4-CF3-phenyl))]G-NH2 (N-terminus assumed; SMILES Cc1cc(O)cc(C)c1C[C@H](N)C(=O)N[C@H](CCCNC(=N)N)C(=O)N[C@@H](Cc1ccccc1-c1ccc(C(F)(F)F)cc1)C(=O)NCC(N)=O) [Dmt-D-Arg-Phe(2-(4-CF3-phenyl))-Gly-NH2]", "met"),
    ("[Dmt][dA][Phe(2-(3-thienyl))]G-NH2 (N-terminus assumed; SMILES Cc1cc(O)cc(C)c1C[C@H](N)C(=O)N[C@H](C)C(=O)N[C@@H](Cc1ccccc1-c1ccsc1)C(=O)NCC(N)=O) [Dmt-D-Ala-Phe(2-(3-thienyl))-Gly-NH2]", "met"),
]

input: Strictly below 3 nM in IC50 in the mouse vas deferens (MVD) assay? [Dmt][dR][Phe(4-vinyl)]G-NH2 (N-terminus assumed; SMILES C=Cc1ccc(C[C@H](NC(=O)[C@@H](CCCNC(=N)N)NC(=O)[C@@H](N)Cc2c(C)cc(O)cc2C)C(=O)NCC(N)=O)cc1) [Dmt-D-Arg-Phe(4-vinyl)-Gly-NH2]
output: not met

input: What about [Dmt][dR]FG-NH2 (N-terminus assumed; SMILES Cc1cc(O)cc(C)c1C[C@H](N)C(=O)N[C@H](CCCNC(=N)N)C(=O)N[C@@H](Cc1ccccc1)C(=O)NCC(N)=O) [Dmt-D-Arg-Phe-Gly-NH2] ?
output: met

input: What about [Dmt][dR][Phe(2-(3-thienyl))]G-NH2 (N-terminus assumed; SMILES Cc1cc(O)cc(C)c1C[C@H](N)C(=O)N[C@H](CCCNC(=N)N)C(=O)N[C@@H](Cc1ccccc1-c1ccsc1)C(=O)NCC(N)=O) [Dmt-D-Arg-Phe(2-(3-thienyl))-Gly-NH2] ?
output: met

input: What about [Dmt][dR][Phe(2-Ph)]G-NH2 (N-terminus assumed; SMILES Cc1cc(O)cc(C)c1C[C@H](N)C(=O)N[C@H](CCCNC(=N)N)C(=O)N[C@@H](Cc1ccccc1-c1ccccc1)C(=O)NCC(N)=O) [Dmt-D-Arg-Phe(2-phenyl)-Gly-NH2] ?
output: not met

Origin of the recorded values: paper PMC6005765
